procedure_details: Determination of the microsomal half-life, human liver microsomes
recorded_conditions: human, liver microsomes, pH 7.4
Counter-ions that a name gives are not always drawn.
Field: microsomal CLint at 0.5 μM. Provide a value for each of the compounds that follow.

Query: // query microsomal CLint at 0.5 μM value for entry CN1CCN(Cc2ccc(-c3cccc4c3C(=O)N(CCc3ccc5ccccc5n3)C4)cc2)CC1 [Example 167, trifluoroacetate]
Response: > 220 µL/min/mg

Query: // query microsomal CLint at 0.5 μM value for entry O=C1c2c(N3CCC(O)CC3)ccnc2CN1CCc1ccc2ccccc2n1 [compound 530, trifluoroacetate]
Response: < 100 µL/min/mg

Query: // query microsomal CLint at 0.5 μM value for entry CN1CCN(C2CCN(c3cccc4c3C(=O)N(CCc3ccc5ccccc5n3)C4)CC2)CC1 [Example 100, trifluoroacetate]
Response: 100 to 220 µL/min/mg

Query: // query microsomal CLint at 0.5 μM value for entry `O=C1c2c(-c3cccnc3)ccnc2CN1CCc1cn2ccccc2n1`
Response: < 100 µL/min/mg

Query: // query microsomal CLint at 0.5 μM value for entry `O=C1c2c(cccc2-c2ccncc2)CN1CCc1cccc(-c2ncccn2)c1`
Response: 100 to 220 µL/min/mg

Query: // query microsomal CLint at 0.5 μM value for entry O=C1c2c(cccc2-c2ccc3nc[nH]c3c2)CN1CCc1ccc2ccccc2n1 [Example 11, trifluoroacetate]
Response: < 100 µL/min/mg

Query: // query microsomal CLint at 0.5 μM value for entry COc1ccc(-c2cncnc2)c2c1CN(CCc1cn3ccccc3n1)C2=O [Example 217, trifluoroacetate]
Response: < 100 µL/min/mg
